Where these numbers come from: ChEMBL document CHEMBL4689842

# Tested on: U2OS
# measurement-notes: Multiplex assay against U2OS
# Assay type: toxicity, cell-based
# measurement-setup: human, 24 h, 1 µM, compound concentration 1 uM, replicate 1
parameter-measured: Population Normal (%)
Give just the number in %; leave the unit off.

Answered examples (3):
CCCCCNC(=N)N/N=C/c1c[nH]c2ccc(OC)cc12.O=C(O)/C=C\C(=O)O [TEGASEROD MALEATE]	95
CC[C@H](Nc1ncnc2[nH]cnc12)c1nc2cccc(F)c2c(=O)n1-c1ccccc1 [IDELALISIB]	96
Oc1cccc(-c2nc(N3CCOCC3)c3oc4ncccc4c3n2)c1 [PI-103]	91

Inquiry: Which Population Normal (%) value is on record for COc1cc(Nc2ccnc3ccc(Br)cc23)cc(OC)c1OC ?
Reply text: 93

Inquiry: Which Population Normal (%) value is on record for CC(/C=C1\SC(=S)N(CCCC(=O)Nc2ccc(C(=O)O)c(O)c2)C1=O)=C\c1ccccc1 ?
Reply text: 95

Inquiry: Which Population Normal (%) value is on record for CCCc1cc(C)[nH]c(=O)c1CNC(=O)c1cc(-c2ccc(N3CCN(C(C)C)CC3)nc2)cc2c1cnn2C(C)C ?
Reply text: 86

Inquiry: Which Population Normal (%) value is on record for CCOc1ccn(-c2ccc(F)cc2)c(=O)c1C(=O)Nc1ccc(Oc2ccnc(N)c2Cl)c(F)c1 [BMS-777607] ?
Reply text: 96

Inquiry: Which Population Normal (%) value is on record for CC(C)[C@H](CO)Nc1nc(Nc2cccc(Cl)c2)c2ncn(C(C)C)c2n1 [PURVALANOLA] ?
Reply text: 94
